Test system: MDA-MB-468 cells
Settings: 48 h
Where a SMILES comes first, the peptide text is derived from it. [ ]: non-standard residue; d: D form. The star is where a group is joined. NMe2Val = CC(C)[C@@H](C(=O)*)N(C)C; NMeV = CN[C@H](C(=O)O)C(C)C; Nphe = O=C(O)CNCc1ccccc1; NHHex = CCCCCCN*
quantity.kind: pIC50
Give bare numbers, as −log10 of the molar value.

Quick one: pIC50 of CCCCCCNC(=O)CN(Cc1ccccc1)C(=O)[C@@H]1CCCN1C(=O)[C@@H]1CCCN1C(=O)[C@H](C(C)C)N(C)C(=O)[C@@H](NC(=O)[C@H](C(C)C)N(C)C)C(C)C [Peptide 5b] (NMe2Val-V[NMeV]PP[Nphe]-NHHex) ? 5.68

###

Please go through the items and note down their IC50.
Test system: MDA-MB-468 cells
Settings: 48 h
*1 amine or outer side, *2 acyl side, *3 side chain or, on linkers, in order; H or OH if unused. Where a SMILES comes first, the peptide text is derived from it. [ ]: non-standard residue; d: D form. The star is where a group is joined. N(CH2CH2CO)Gly = O=C(CN(CCC(=O)[*:3])[*:1])[*:2]; NMe2Val = CC(C)[C@@H](C(=O)*)N(C)C; NHhexadecyl = CCCCCCCCCCCCCCCCN*; NMeV = CN[C@H](C(=O)O)C(C)C; Nphe = O=C(O)CNCc1ccccc1; NHcHex = C1CCC(N*)CC1
Numbers only, in µM.

INSERT INTO measurements (compound, obs_value) VALUES
  ('CCCCCCCCCCCCCCCCNC(=O)CCN(CC(=O)NC1CCCCC1)C(=O)[C@@H]1CCCN1C(=O)[C@H](C(C)C)N(C)C(=O)[C@@H](NC(=O)[C@H](C(C)C)N(C)C)C(C)C [Peptide 11i] (NMe2Val-V[NMeV]P[N(CH2CH2CO)Gly](NHhexadecyl)-NHcHex)', 3.4);

// switching to the query compound
# value lookup — system MDA-MB-468 cells, readout IC50, item CC(C)[C@H](NC(=O)[C@H](C(C)C)N(C)C)C(=O)N(C)[C@H](C(=O)N1CCC[C@H]1C(=O)N1CCC[C@H]1C(=O)N(CC(=O)NC1CCCCC1)Cc1ccccc1)C(C)C [Peptide 5d] (NMe2Val-V[NMeV]PP[Nphe]-NHcHex) 1.4
